Data provenance: the supplement of paper PMC11061612

System: Mewo (Melanoma)
Assay: Bliss excess, mean over the matrix (fraction); higher = more synergy
Recorded Bliss excess values for a group of molecules are listed next.
When you answer, write just the number.

Look at this molecule and give its reported Bliss excess. Cn1cnc2c(F)c(Nc3ccc(Br)cc3Cl)c(C(=O)NOCCO)cc21 [Selumetinib] + CCN(CCO)CCCOc1ccc2c(Nc3cc(CC(=O)Nc4cccc(F)c4)[nH]n3)ncnc2c1 [AZD2811] (first compound max 10 µM, 7x7, partner max 1 µM)
0.0389

Field request: Bliss excess | item: CCc1c2c(nc3ccc(O)cc13)-c1cc3c(c(=O)n1C2)COC(=O)[C@]3(O)CC [SN-38] + O=C(c1cc(Cc2n[nH]c(=O)c3ccccc23)ccc1F)N1CCN(C(=O)C2CC2)CC1 [Olaparib] (first compound max 0.3 µM, 7x7, partner max 10 µM)
0.008

====

Tested on: HMV-II (Melanoma)
Assay: combination Emax (second highest fraction inhibited in the dose matrix, 72 h); higher = more inhibition; extreme values may be limits of the assay
I would appreciate it if you labelled entries Fulfilled when combination Emax is 0.5 or higher, otherwise Not fulfilled.

INSERT INTO measurements (compound, class_label) VALUES
  ('C[C@@H](c1ccc2nccn2c1)n1nnc2ncc(-c3cnn(C)c3)nc21 [Savolitinib] + Cc1c2c(nn1C)CSCc1cc(n(C)n1)CSc1cc(c3ccccc3c1)OCCCc1c(C(=O)O)n(C)c3c-2c(Cl)ccc13 [AZD5991] (first compound max 1 µM, 7x7, partner max 1 µM)', 'Not fulfilled'),
  ('CN(CCO)CC[C@H](CSc1ccccc1)Nc1ccc(S(=O)(=O)NC(=O)c2ccc(N3CCC([C@@H](O)c4ccccc4-c4ccc(Cl)cc4)CC3)cc2)cc1S(=O)(=O)C(F)(F)F [AZD4320] + Cc1cc2ncnn2cc1Nc1ncc2c(n1)n(C1CCOCC1)c(=O)n2C [AZD7648] (first compound max 1 µM, 7x7, partner max 10 µM)', 'Not fulfilled'),
  ('Cc1cc2ncnn2cc1Nc1ncc2c(n1)n(C1CCOCC1)c(=O)n2C [AZD7648] + C=CCn1c(=O)c2cnc(Nc3ccc(N4CCN(C)CC4)cc3)nc2n1-c1cccc(C(C)(C)O)n1 [AZD1775] (first compound max 10 µM, partner max 1 µM)', 'Fulfilled');

State whether the measured combination Emax reaches 0.5, counting equality as reaching it, for COc1cccc(OCCCN)c1-c1cc(Nc2cnc(C#N)cn2)n[nH]1 [Prexasertib] + O=C(c1cc(Cc2n[nH]c(=O)c3ccccc23)ccc1F)N1CCN(C(=O)C2CC2)CC1 [Olaparib] (first compound max 1 µM, 7x7, partner max 10 µM)
Fulfilled

Is combination Emax for NC1(C(=O)N[C@@H](CCO)c2ccc(Cl)cc2)CCN(c2ncnc3[nH]ccc23)CC1 [Capivasertib] + CCN(CCO)CCCOc1ccc2c(Nc3cc(CC(=O)Nc4cccc(F)c4)[nH]n3)ncnc2c1 [AZD2811] (first compound max 10 µM, 7x7, partner max 1 µM) at or above 0.5?
Not fulfilled

Textbook exercise: given the entry Cc1nc(-c2cn3c(n2)-c2ccc(-c4cnn(C(C)(C)C(N)=O)c4)cc2OCC3)n(C(C)C)n1 [Taselisib] + O=C(Nc1ccc2[nH]nc(-c3ccncc3)c2c1)[C@@H]1CCN(CC(=O)N2CCN(c3ccc(-c4ncccn4)cc3)CC2)C1 [SCH772984] (first compound max 10 µM, 7x7, partner max 5 µM) , state whether its combination Emax is greater than or equal to 0.5.
Fulfilled

# bool: combination Emax of C[C@@H](Oc1cc(-c2cnn(C3CCNCC3)c2)cnc1N)c1c(Cl)ccc(F)c1Cl [Crizotinib] + Cn1cnc2c(F)c(Nc3ccc(Br)cc3Cl)c(C(=O)NOCCO)cc21 [Selumetinib] (first compound max 10 µM, 7x7, partner max 10 µM) >= 0.5
Fulfilled

====

Test system: HO-1-u-1 (Oral Cavity Carcinoma)
Test: Bliss excess, mean over the matrix (fraction); higher = more synergy
Below is a list of entries, each paired with its recorded Bliss excess value.

Solved entries (count: 2):
INSERT INTO measurements (compound, result) VALUES
  ('CN(CCO)CC[C@H](CSc1ccccc1)Nc1ccc(S(=O)(=O)NC(=O)c2ccc(N3CCC([C@@H](O)c4ccccc4-c4ccc(Cl)cc4)CC3)cc2)cc1S(=O)(=O)C(F)(F)F [AZD4320] + C1CN(CCC1(C(=O)N[C@@H](CCO)C2=CC=C(C=C2)Cl)N)C3=NC=NC4=C3C=CN4 [Capivasertib] (first compound max 1 µM, 7x7, partner max 3 µM)', -0.0621),
  ('CN(CCO)CC[C@H](CSc1ccccc1)Nc1ccc(S(=O)(=O)NC(=O)c2ccc(N3CCC([C@@H](O)c4ccccc4-c4ccc(Cl)cc4)CC3)cc2)cc1S(=O)(=O)C(F)(F)F [AZD4320] + C=CCn1c(=O)c2cnc(Nc3ccc(N4CCN(C)CC4)cc3)nc2n1-c1cccc(C(C)(C)O)n1 [AZD1775] (first compound max 1 µM, partner max 1 µM)', 0.0066);

Look up Bliss excess with HO-1-u-1 (Oral Cavity Carcinoma) for this compound: COc1nnc2ccc(N3CCC(c4ccc(OCCN5CCN(C)C(=O)[C@H]5C)cc4)CC3)nn12 [AZD5153] + Cn1cnc2c(F)c(Nc3ccc(Br)cc3Cl)c(C(=O)NOCCO)cc21 [Selumetinib] (first compound max 1 µM, 7x7, partner max 10 µM)
0.0747

====

Tested on: NCI-H747 (Colorectal Carcinoma)
Experiment: Bliss excess, mean over the matrix (fraction); higher = more synergy
A collection of compounds and their measured Bliss excess
Give the figure only, with no unit attached.

Solved entries (count: 2):
INSERT INTO results (compound, system_name, recorded_number) VALUES
  ('CN(CCO)CC[C@H](CSc1ccccc1)Nc1ccc(S(=O)(=O)NC(=O)c2ccc(N3CCC([C@@H](O)c4ccccc4-c4ccc(Cl)cc4)CC3)cc2)cc1S(=O)(=O)C(F)(F)F [AZD4320] + CN(C)CCCOc1ccc(-c2ccc3ncc4c(c3c2)n(C2CCOCC2)c(=O)n4C)cn1 [AZD0156] (first compound max 1 µM, 7x7, partner max 1 µM)', 'NCI-H747 (Colorectal Carcinoma)', -0.0546),
  ('CN(C)CCCOc1ccc(-c2ccc3ncc4c(c3c2)n(C2CCOCC2)c(=O)n4C)cn1 [AZD0156] + CCN(CCO)CCCOc1ccc2c(Nc3cc(CC(=O)Nc4cccc(F)c4)[nH]n3)ncnc2c1 [AZD2811] (first compound max 1 µM, 7x7, partner max 1 µM)', 'NCI-H747 (Colorectal Carcinoma)', -0.02);

Fill blank: measured Bliss excess of the compound NC1(C(=O)N[C@@H](CCO)c2ccc(Cl)cc2)CCN(c2ncnc3[nH]ccc23)CC1 [Capivasertib] + COc1nnc2ccc(N3CCC(c4ccc(OCCN5CCN(C)C(=O)[C@H]5C)cc4)CC3)nn12 [AZD5153] (first compound max 10 µM, 7x7, partner max 1 µM) is ____.
-0.042

====

Test system: TE-4 (Esophageal Squamous Cell Carcinoma)
Experiment: combination Emax (second highest fraction inhibited in the dose matrix, 72 h); higher = more inhibition; extreme values may be limits of the assay
Quantity name: combination Emax
# answer = number (no unit)

INSERT INTO measurements (compound, quantity_name, recorded_number) VALUES
  ('CC(=O)c1c(C)c2cnc(Nc3ccc(N4CCNCC4)cn3)nc2n(C2CCCC2)c1=O [Palbociclib] + Cc1c2c(nn1C)CSCc1cc(n(C)n1)CSc1cc(c3ccccc3c1)OCCCc1c(C(=O)O)n(C)c3c-2c(Cl)ccc13 [AZD5991] (first compound max 10 µM, 7x7, partner max 1 µM)', 'combination Emax', 0.966);

Consider the compound Cc1cc2ncnn2cc1Nc1ncc2c(n1)n(C1CCOCC1)c(=O)n2C [AZD7648] + C[C@@H]1COCCN1C2=NC(=NC(=C2)C3(CC3)[S@](=N)(=O)C)C4=C5C=CNC5=NC=C4 [AZD6738] (first compound max 10 µM, 7x7, partner max 10 µM) and give its measured combination Emax.
0.531

Could you share which combination Emax value was measured for C[C@@H](c1ccc2nccn2c1)n1nnc2ncc(-c3cnn(C)c3)nc21 [Savolitinib] + CN(CC[C@H](CSC1=CC=CC=C1)NC2=C(C=C(C=C2)S(=O)(=O)NC(=O)C3=CC=C(C=C3)N4CCC(CC4)[C@H](C5=CC=CC=C5C6=CC=C(C=C6)Cl)O)S(=O)(=O)C(F)(F)F)CCO [AZD4320] (first compound max 1 µM, 7x7, partner max 1 µM) ?
0.145

Would you mind telling me what combination Emax value was observed for CN(C)CCCOc1ccc(-c2ccc3ncc4c(c3c2)n(C2CCOCC2)c(=O)n4C)cn1 [AZD0156] + C[C@@H]1COCCN1C2=NC(=NC(=C2)C3(CC3)[S@](=N)(=O)C)C4=C5C=CNC5=NC=C4 [AZD6738] (first compound max 1 µM, 7x7, partner max 10 µM) ?
0.604

====

System: Hs-633T (Other Solid Carcinomas)
Assay: combination Emax (second highest fraction inhibited in the dose matrix, 72 h); higher = more inhibition; extreme values may be limits of the assay
Classification field: true (1) = combination Emax at or over 0.4; false (0) = combination Emax under 0.4.

INSERT INTO results (compound, class_label) VALUES
  ('C[C@@H](Nc1cc(F)cc(F)c1)c1cc(C(=O)N(C)C)cc2c(=O)cc(N3CCOCC3)oc12 [AZD8186] + C1CN(CCC1(C(=O)N[C@@H](CCO)C2=CC=C(C=C2)Cl)N)C3=NC=NC4=C3C=CN4 [AZD5363] (first compound max 10 µM, 7x7, partner max 10 µM)', 'false (0)');

// inclusive: combination Emax at least 0.4? input: CCN(CCO)CCCOc1ccc2c(Nc3cc(CC(=O)Nc4cccc(F)c4)[nH]n3)ncnc2c1 [AZD2811] + C=CCn1c(=O)c2cnc(Nc3ccc(N4CCN(C)CC4)cc3)nc2n1-c1cccc(C(C)(C)O)n1 [AZD1775] (first compound max 1 µM, partner max 1 µM)
true (1)

Item CC1(C)CCC(CN2CCN(c3ccc(C(=O)NS(=O)(=O)c4ccc(NCC5CCOCC5)c([N+](=O)[O-])c4)c(Oc4cnc5[nH]ccc5c4)c3)CC2)=C(c2ccc(Cl)cc2)C1 [Venetoclax] + COc1cc(Nc2ncc3c(n2)-c2ccc(Cl)cc2C(c2c(F)cccc2OC)=NC3)ccc1C(=O)O [Alisertib] (first compound max 1 µM, 7x7, partner max 10 µM) with combination Emax of 0.4 or above?
true (1)

Quick check, combination Emax >= 0.4? CC1(C)CCC(CN2CCN(c3ccc(C(=O)NS(=O)(=O)c4ccc(NCC5CCOCC5)c([N+](=O)[O-])c4)c(Oc4cnc5[nH]ccc5c4)c3)CC2)=C(c2ccc(Cl)cc2)C1 [Venetoclax] + C1CN(CCC1(C(=O)N[C@@H](CCO)C2=CC=C(C=C2)Cl)N)C3=NC=NC4=C3C=CN4 [Capivasertib] (first compound max 1 µM, 7x7, partner max 3 µM)
false (0)

Form field: combination Emax at least 0.4? Entry: N#Cc1cnc(Nc2cc(NC[C@H]3CNCCO3)c(C(F)(F)F)cn2)cn1 [SRA737] + C=CCn1c(=O)c2cnc(Nc3ccc(N4CCN(C)CC4)cc3)nc2n1-c1cccc(C(C)(C)O)n1 [AZD1775] (first compound max 10 µM, partner max 1 µM)
true (1)
